Target: T1, Human CD47-C33G (human, UniProt Q08722 19-135)
T1 construct: also called CD47 mutein with C33G mutation
T1 sequence (Q08722 19-135 C33G limits assumed): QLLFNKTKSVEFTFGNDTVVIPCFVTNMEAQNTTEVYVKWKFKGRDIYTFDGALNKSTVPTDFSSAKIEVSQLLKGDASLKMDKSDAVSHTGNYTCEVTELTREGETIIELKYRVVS
Assay: SPR, IgG captured, CD47 in flow; exp 3;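 note: biacore T200 SPR with antibodies taken from supernatants of transfected HEK293 cells, C33G mutein avoiding IgV homodimers for monovalent affinity, Kd derived from association and dissociation rate constants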
property-measured: kon (M⁻¹ s⁻¹)
Just the number please, in M⁻¹ s⁻¹, no unit attached.

Query string: Need kon of 108VH5.M17 / 108VL1.M5 (antibody, human IgG4 S228P, kappa, V domains shown, Full-length IgG4 (S228P), kappa; also called VH5.M17 VL1.M5) VH: EVQLVQSGAEVKKPGASVKVSCKASGYTFTHHWMHWVRQAPGQGLEWMGMIDASEGETRYAQKFQGRVTMTRDTSTSTVYMELSSLRSEDTAVYYCARLGRYYFDYWGQGTLVTVSS VL: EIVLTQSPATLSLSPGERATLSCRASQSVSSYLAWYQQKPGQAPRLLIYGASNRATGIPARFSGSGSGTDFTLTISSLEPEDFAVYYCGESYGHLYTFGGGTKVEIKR , thanks.
Result string: 64000

Query string: // query kon value for entry 108VH5.M16 / 108VL1.M5 (antibody, human IgG4 S228P, kappa, V domains shown, Full-length IgG4 (S228P), kappa; also called VH5.M16 VL1.M5) VH: EVQLVQSGAEVKKPGASVKVSCKASGYTFTHHWMHWVRQAPGQGLEWMGMIDASDGETRYAQKFQGRVTMTRDTSTSTVYMELSSLRSEDTAVYYCARLGRYYFDYWGQGTLVTVSS VL: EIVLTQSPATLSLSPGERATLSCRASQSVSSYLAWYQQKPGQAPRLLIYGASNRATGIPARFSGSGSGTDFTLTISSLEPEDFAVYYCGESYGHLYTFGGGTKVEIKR
Result string: 290000
